Consider the following compounds; for each one, report its growth.
Tested on: MDA-MB-231 breast
Experiment: NCI-60 one-dose screen, 48 h (100 = growth as untreated, 0 = no growth, -100 = all killed)
Settings: 10 µM unless noted
The panel holds about 83,000 compounds, 20% with a hit somewhere; the sample as a whole holds those more often. Activity calls are given as the source filed them. The calls were made as follows: active = growth percent below 10; inactive = the rest.

Illustrative cases are given below, each with its answer.
Compound: NC(=S)NNC1CCCCC1
growth: 92.1% (inactive)

Compound: Cc1cccc[n+]1CCC[n+]1ccccc1C
growth: 115% (inactive)

Compound: [2H]c1nc(Nc2ncc(F)c(-c3cc(F)c4nc(C)n(C(C)C)c4c3)n2)c([2H])c([2H])c1CN1CCN(CC)CC1
growth: 55.5% (inactive)

Compound: COc1ccc2c(c1)OC(N(C(C)=O)C(C)=O)=C(C#N)C2c1ccc(F)cc1 (stereo not given)
growth: 53.1% (inactive)

Compound: COC(=O)c1oc2c(C(C)=O)c(OCCN3CCCCC3)ccc2c1C
growth: 87.2% (inactive)

Compound: CN(C)c1ccc2cc(-c3nc4ccccc4s3)c(N)nc2c1
growth: 70.7% (inactive)

List the reported growth of each compound below.
1. O=C(O)c1cc2ccccc2cc1Nc1ccccc1
2. CN1CCN(Cn2nc(-c3cc(Cl)cc(Cl)c3Cl)n(/N=C/c3ccc(Cl)cc3)c2=S)CC1
3. O=C(O)c1cn(C2CC2)c2cc(N3CCN(C(=O)CSc4nc(NS(=O)(=O)c5ccccc5)cc(=O)[nH]4)CC3)c(F)cc2c1=O
4. CCC1CN2C(=N1)c1ccccc1-c1cc(Cl)ccc12 (stereo not given)
5. CCC1S/C(=N\N=C(/C)c2ccco2)N(c2ccccc2)C1=O (stereo not given)

Solution:
1. 96.2% (inactive)
2. 83.8% (inactive)
3. 100% (inactive)
4. 47.9% (inactive)
5. 118% (inactive)

Here are 4 compounds. What values of growth were reported for them?
1. CCCC(=O)Oc1ccc(/C(=C(\C)c2ccc(Cl)cc2)c2ccc(OCCN(CC)CC)cc2)cc1
2. C=C(C)[C@@H]1C/C=C(\COC(=O)[C@H](OC(C)=O)C(NC(=O)c2ccccc2)c2ccccc2)CC[C@H]2O[C@]2(C)CC/C=C(\C)CC1 (stereo not given in full)
3. CC(=O)N1N=C2N(Cc3ccccc3)C(=O)c3c(sc4c3CCCC4)N2C1c1cn(-c2ccccc2)nc1-c1ccc(Cl)cc1 (stereo not given)
4. CCC1S/C(=N\N=C(/C)c2cccs2)N(c2ccccc2)C1=O (stereo not given)

Solution:
1: -40.9% (active); 2: 65.2% [5 µM] (inactive); 3: 99.1% (inactive); 4: 97.7% (inactive)

Please go through the list and note growth for each compound.
1. Cc1ccc(-c2cc(-c3nnc(SCC(=O)c4ccccc4)o3)c3ccccc3n2)cc1
2. Nc1nccc2c1ccn2-c1ccc(NC(=O)c2ccc(N3CCOCC3)c(C(F)(F)F)c2)cc1
3. CC(C)(C)OC(=O)N1CC(Cn2cc(C(F)(F)F)c3c(Cl)ncnc32)C1
4. COc1ccc(-c2ccc(NC(=O)Nc3ccc(Cl)c(C(F)(F)F)c3)c(C)n2)cc1
5. O=C(O)c1ccccc1C(=O)c1ccc(I)cc1

Solution:
1: 117% (inactive); 2: -3.15% (active); 3: 0.765% (active); 4: 85% (inactive); 5: 110% (inactive)
